Each record here notes measured pKd.
Biological target: T1, insulin-like growth factor II (IGF-II), amino acids 1-67 (human, UniProt P01344 25-91)
T1 construct: recombinant; also called IGF-II (67aa); IGF2
T1 sequence (P01344 25-91): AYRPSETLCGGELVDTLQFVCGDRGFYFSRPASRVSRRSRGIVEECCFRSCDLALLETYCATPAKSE
Assay: SPR (Flexchip), Fab, 1st of duplicate
pKd here is simply -log10 of the concentration when that concentration is written in mol/L.

Examples with their reported pKd follow.
Item under review: M0064-E04 Fab (Fab, V domains shown, soluble Fab (sFab); also called R0032-A03; 566A-M0064-E04) VH: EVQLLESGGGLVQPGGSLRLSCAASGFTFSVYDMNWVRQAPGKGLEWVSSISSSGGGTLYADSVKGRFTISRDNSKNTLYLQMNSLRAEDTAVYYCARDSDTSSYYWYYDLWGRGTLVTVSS VL: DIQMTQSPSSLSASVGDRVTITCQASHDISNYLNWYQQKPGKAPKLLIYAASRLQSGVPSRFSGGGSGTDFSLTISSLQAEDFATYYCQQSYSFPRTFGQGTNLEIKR . Reported pKd?
9.92

Same again, this time with M0063-F02 Fab (Fab, V domains shown, soluble Fab (sFab); also called R0032-A01) VH: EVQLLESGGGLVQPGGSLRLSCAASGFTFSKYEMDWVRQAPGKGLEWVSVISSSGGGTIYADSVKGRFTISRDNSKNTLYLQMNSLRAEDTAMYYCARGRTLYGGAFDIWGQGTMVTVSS VL: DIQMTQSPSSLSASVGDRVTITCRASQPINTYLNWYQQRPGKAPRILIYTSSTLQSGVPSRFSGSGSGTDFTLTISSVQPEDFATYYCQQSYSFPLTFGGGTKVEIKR
9.11

Next entry: M0068-E03 Fab (Fab, V domains shown, soluble Fab (sFab); heavy constant part carries His6 and myc tags; also called R0032-C01) VH: EVQLLESGGGLVQPGGSLRLSCAASGFTFSEYVMAWVRQAPGKGLEWVSSIVSSGGYTKYADSVKGRFTISRDNSKNTLYLQMNSLRAEDTAVYYCAKDMTYSGDAFDVWGQGTMVTVSS VL: DIQMTQSPSSLSASVGDRVTITCRASQSINTYLNWYQQKPGKAPKVLIHAASTLESGVPSRFSGSGSATEFTLTISSLQPEDFATFYCQQSYSVPFTFGPGTRLSSKR
9.03

// below: pKd requested for another binder
// lookup pKd for M0064-F02 Fab (Fab, V domains shown, soluble Fab (sFab); also the Fab crystallised with IGF-II; also called R0032-A11; 566A-M0064-F02) VH: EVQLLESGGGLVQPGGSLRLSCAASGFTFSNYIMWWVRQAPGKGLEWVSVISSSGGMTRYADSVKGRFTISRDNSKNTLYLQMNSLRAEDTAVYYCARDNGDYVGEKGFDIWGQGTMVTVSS VL: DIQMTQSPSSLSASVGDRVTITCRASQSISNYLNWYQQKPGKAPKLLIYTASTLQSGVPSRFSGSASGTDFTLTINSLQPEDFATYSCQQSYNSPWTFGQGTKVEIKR
9.35
